The reported numbers originate from patent EP3958980B1.

system: A549 cells; assay: Cell cycle arrest by flow cytometry; assay type: cell-based, human; details: IC50 doses, 24 hours
So basically: S% at 40% or higher? That is Yes. Lower than 40%? That is No.

[Q] Hi, just wondering whether c1ccc(-c2ccc(C3=Nn4c(CCc5ccc6c(c5)OCO6)nnc4SC3)cc2)cc1 shows S% of 40% or higher.
[A] No

[Q] Similarly, N.N.[Cl][Pt][Cl] [Cisplatin, reference compound] ?
[A] Yes

[Q] Similarly, FC(F)(F)c1ccc(C2=Nn3c(CCc4ccc5c(c4)OCO5)nnc3SC2)cc1 ?
[A] No

[Q] Similarly, CS(=O)(=O)c1ccc(C2=Nn3c(CCc4ccc5c(c4)OCO5)nnc3SC2)cc1 ?
[A] No

---

For each entry below, report its IC50 value.
test system: A549 human lung adenocarcinoma cells; assay: MTT assay, in vitro cytotoxic activity on A549; format: cell-based; conditions: Homo sapiens, A549, 24 hour incubation, read-out: IC50 values (µg/mL) A549 cell line
Number only, in µg/mL; omit the unit.

[Q] I have this compound here, COc1ccc(C2=Nn3c(CCc4ccc5c(c4)OCO5)nnc3SC2)cc1 , and I need its recorded IC50.
[A] 45.7

[Q] Similarly, c1ccc(C2=Nn3c(CCc4ccc5c(c4)OCO5)nnc3SC2)cc1 ?
[A] 103

[Q] Similarly, Fc1cccc(C2=Nn3c(CCc4ccc5c(c4)OCO5)nnc3SC2)c1 ?
[A] 0.8

---

system: Akt; experiment: Akt colorimetric in cell ELISA in A549 cells; assay type: cell-based, human; conditions: 24 hours, compared to cisplatin and GSK690693

{"columns": ["Molecule", "Akt inhibition (in words)"],
 "data": [
  ["CS(=O)(=O)c1ccc(C2=Nn3c(CCc4ccc5c(c4)OCO5)nnc3SC2)cc1 [Compound 9]", "moderate Akt inhibition"],
  ["c1ccc(-c2ccc(C3=Nn4c(CCc5ccc6c(c5)OCO6)nnc4SC3)cc2)cc1 [Compound 14]", "moderate Akt inhibition"],
  ["Fc1cccc(C2=Nn3c(CCc4ccc5c(c4)OCO5)nnc3SC2)c1 [Compound 12]", "moderate Akt inhibition"]
]}

---

For each entry below, report its IC50 value.
test system: A549 human lung adenocarcinoma cells; test: MTT assay, in vitro cytotoxic activity on A549; format: cell-based; details: Homo sapiens, A549, 24 hour incubation, read-out: IC50 values (µg/mL) A549 cell line

[Q] I have this compound here, CCn1c(-c2nonc2N)nc2c(C#CC(C)(C)O)ncc(OC[C@H]3CCCNC3)c21 [GSK690693, reference compound] , and I need its recorded IC50.
[A] 6.75 µg/mL

[Q] Similarly, Clc1ccc(C2=Nn3c(CCc4ccc5c(c4)OCO5)nnc3SC2)cc1 [Compound 5] ?
[A] > 500 µg/mL

[Q] Similarly, N#Cc1ccc(C2=Nn3c(CCc4ccc5c(c4)OCO5)nnc3SC2)cc1 [Compound 3] ?
[A] > 500 µg/mL

---

target: COX-2 (Homo sapiens, UniProt P35354); construct: endogenous in cells; host or cells: A549; assay: COX activity assay (colorimetric kit) on lysates of treated A549 cells, COX-2; format: cell-based; conditions: 24 hours incubation, IC50 concentrations
Sequence (P35354 18-604): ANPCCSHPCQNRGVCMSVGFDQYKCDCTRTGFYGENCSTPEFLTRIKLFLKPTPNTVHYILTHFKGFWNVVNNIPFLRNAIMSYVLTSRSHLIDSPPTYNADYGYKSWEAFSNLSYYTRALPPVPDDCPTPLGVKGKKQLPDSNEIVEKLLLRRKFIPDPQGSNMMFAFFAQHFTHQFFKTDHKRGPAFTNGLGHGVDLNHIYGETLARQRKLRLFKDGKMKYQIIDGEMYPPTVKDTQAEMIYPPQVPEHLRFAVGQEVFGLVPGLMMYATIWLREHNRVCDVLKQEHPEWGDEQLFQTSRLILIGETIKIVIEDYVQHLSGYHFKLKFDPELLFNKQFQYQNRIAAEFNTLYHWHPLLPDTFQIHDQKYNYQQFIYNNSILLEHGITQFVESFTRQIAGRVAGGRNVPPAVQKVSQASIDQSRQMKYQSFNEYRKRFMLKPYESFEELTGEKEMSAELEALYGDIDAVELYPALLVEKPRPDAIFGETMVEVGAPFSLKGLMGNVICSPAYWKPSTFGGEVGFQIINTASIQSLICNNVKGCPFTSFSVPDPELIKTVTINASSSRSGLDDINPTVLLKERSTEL
Readout kind: COX-2 activity (U/mL)
Give the number first and the unit second.

[Q] I have this molecule here, Fc1cccc(C2=Nn3c(CCc4ccc5c(c4)OCO5)nnc3SC2)c1 , and I need its recorded COX-2 activity (U/mL).
[A] 1.95 U/mL

[Q] Similarly, CS(=O)(=O)c1ccc(C2=Nn3c(CCc4ccc5c(c4)OCO5)nnc3SC2)cc1 ?
[A] 3.60 U/mL

[Q] Similarly, FC(F)(F)c1ccc(C2=Nn3c(CCc4ccc5c(c4)OCO5)nnc3SC2)cc1 ?
[A] 1.46 U/mL

[Q] Similarly, N.N.[Cl][Pt][Cl] [Cisplatin, reference compound] ?
[A] 2.38 U/mL

[Q] Similarly, c1ccc(-c2ccc(C3=Nn4c(CCc5ccc6c(c5)OCO6)nnc4SC3)cc2)cc1 ?
[A] 3.56 U/mL
